target: T1, Cynomolgus monkey glycophorin A on Cynomolgus monkey red blood cells or red blood cell membranes (Cynomolgus monkey); assay: Fab on intact cyno RBC, unbound Fab by ELISA; 120 min after 200-fold dilution
T1 construct: whole, on cells; also called Cyno RBC; Cynomolgus monkey RBC membranes
Below, each of the binders is paired with its reported percentage of input antibody bound value.
Report the value in % with no unit label.

Sample records with percentage of input antibody bound:
TPP-7792, affinity matured 6C12 Fab (Fab, V domains shown, Tested as Fab with a 6xHIS tag) VH: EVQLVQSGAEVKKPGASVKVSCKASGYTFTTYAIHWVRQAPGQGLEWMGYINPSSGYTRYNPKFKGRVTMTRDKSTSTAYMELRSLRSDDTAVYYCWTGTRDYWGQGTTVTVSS VL: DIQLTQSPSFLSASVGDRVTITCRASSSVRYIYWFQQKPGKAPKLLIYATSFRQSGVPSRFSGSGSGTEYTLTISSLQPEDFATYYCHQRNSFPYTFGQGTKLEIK ... 89
TPP-7794, affinity matured 6C12 Fab (Fab, V domains shown, Tested as Fab) VH: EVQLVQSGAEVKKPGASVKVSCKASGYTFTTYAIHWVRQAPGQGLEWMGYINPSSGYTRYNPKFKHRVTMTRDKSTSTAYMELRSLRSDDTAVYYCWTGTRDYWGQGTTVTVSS VL: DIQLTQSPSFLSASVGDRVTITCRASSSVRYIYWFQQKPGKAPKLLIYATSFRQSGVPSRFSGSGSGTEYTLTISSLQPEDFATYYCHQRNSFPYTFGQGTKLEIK ... 57
TPP-7790, affinity matured 6C12 Fab (Fab, V domains shown, Tested as Fab with a 6xHIS tag) VH: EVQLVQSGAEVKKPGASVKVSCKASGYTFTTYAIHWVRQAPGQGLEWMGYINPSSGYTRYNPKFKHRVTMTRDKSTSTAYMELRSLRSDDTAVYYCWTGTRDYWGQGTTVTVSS VL: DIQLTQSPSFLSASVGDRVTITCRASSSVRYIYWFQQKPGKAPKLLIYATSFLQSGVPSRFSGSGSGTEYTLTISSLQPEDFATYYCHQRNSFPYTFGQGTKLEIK ... 85

Reported percentage of input antibody bound, binder TPP-7782, affinity matured 6C12 Fab (Fab, V domains shown, Tested as Fab) VH: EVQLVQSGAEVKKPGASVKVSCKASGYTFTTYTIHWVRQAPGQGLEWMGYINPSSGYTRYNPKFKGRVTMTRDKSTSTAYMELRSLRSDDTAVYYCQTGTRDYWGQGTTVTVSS VL: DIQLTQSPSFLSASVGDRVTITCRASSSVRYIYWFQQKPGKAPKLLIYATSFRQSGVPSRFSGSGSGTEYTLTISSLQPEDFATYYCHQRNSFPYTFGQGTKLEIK : ____ 52

And for TPP-7781, affinity matured 6C12 Fab (Fab, V domains shown, Tested as Fab) VH: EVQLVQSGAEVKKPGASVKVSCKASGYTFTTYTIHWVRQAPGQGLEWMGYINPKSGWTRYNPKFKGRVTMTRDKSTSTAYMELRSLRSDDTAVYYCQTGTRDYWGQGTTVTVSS VL: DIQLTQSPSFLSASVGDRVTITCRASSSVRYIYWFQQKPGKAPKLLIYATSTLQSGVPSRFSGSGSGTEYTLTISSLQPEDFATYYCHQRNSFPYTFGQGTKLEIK ? 19
